Where do the numbers come from? From ChEMBL document CHEMBL1909046.

Assay: DRUGMATRIX: GABAA, Flunitrazepam, Central radioligand binding (ligand: [3H] Flunitrazepam)
Assay type: cell membranes, Rattus norvegicus, Wistar, Brain, Membrane
Conditions: Not Active = under 50% inhibition at 10 µM; read-out: IC50
EXPERIMENTAL_READOUT: IC50 (µM)
Report as a plain number; the unit µM is understood.

Problem: So what's the measured IC50 for this one? CC(=O)O[C@]1(C(C)=O)CC[C@H]2[C@@H]3C[C@H](C)C4=CC(=O)CC[C@]4(C)[C@H]3CC[C@@]21C [MEDROXYPROGESTERONE ACETATE]
Solution: 7.74

Problem: So what's the measured IC50 for this one? `C#C[C@]1(O)CC[C@H]2[C@@H]3CCC4=CC(=O)CC[C@@H]4[C@H]3CC[C@@]21C`
Solution: 13.3
